- Test system: Caco-2
- Test details: drug sensitivity score (DSS) for viability; higher = more toxic; extreme values may be limits of the assay
- Measurement setup: 72 h
Property measured: drug sensitivity score

molecule=COc1ccc(Oc2c(Cl)cnn(C3c4ccccc4-c4ccccc43)c2=O)cc1 test_target=Caco-2 property_measured="drug sensitivity score" recorded_number=0
molecule="CN[C@@H]1[C@@H](O)[C@@H](O[C@@H]2[C@@H](O)[C@H](O[C@H]3OC(CN)=CC[C@H]3N)[C@@H](N)C[C@H]2N)OC[C@]1(C)O [Sisomicin (sulfate)]" test_target=Caco-2 property_measured="drug sensitivity score" recorded_number=0
molecule="CCN(CC)C(=S)S [ditiocarb-sodium-trihydrate]" test_target=Caco-2 property_measured="drug sensitivity score" recorded_number=6.4
molecule="O=P(O)(O)C(O)(Cc1cnc2ccccn12)P(=O)(O)O [minodronic-acid]" test_target=Caco-2 property_measured="drug sensitivity score" recorded_number=0
molecule="CCNC(=O)NS(=O)(=O)c1sc(CC(C)C)cc1-c1ccc(Cn2c(-c3ccccc3)nc(OC)c2C=O)cc1 [AVE-0991]" test_target=Caco-2 property_measured="drug sensitivity score" recorded_number=0
molecule=COC(=O)c1c(C)[nH]c(C)c1C(=O)c1ccccc1Cc1ccccc1 test_target=Caco-2 property_measured="drug sensitivity score" recorded_number=0.3
molecule="CN(C)[C@@H]1C(O)=C(C(N)=O)C(=O)[C@@]2(O)C(O)=C3C(=O)c4c(O)cccc4[C@@](C)(O)[C@H]3C[C@@H]12 [tetracycline]" test_target=Caco-2 property_measured="drug sensitivity score" recorded_number=0
molecule="Oc1cccc2cccnc12 [oxyquinoline]" test_target=Caco-2 property_measured="drug sensitivity score" recorded_number=3.1

----------
- Test system: A549-ACE2
- Test details: drug-induced phospholipidosis relative to tamoxifen; higher = more phospholipidosis
- Measurement setup: 0.833333 µM; 24 h
Measured drug-induced phospholipidosis of individual entries
Property measured: drug-induced phospholipidosis (%)

compound="CC/C(=C(\\c1ccc(O)cc1)c1ccc(OCCN(C)C)cc1)c1ccccc1 [afimoxifene]" test_target=A549-ACE2 unit_symbol=% recorded_number=11.5
compound="O=C(CCCN1CCC2(CC1)C(=O)N(Cc1cccc(F)c1)CN2c1ccccc1)c1ccc(F)cc1 [3'-fluorobenzylspiperone]" test_target=A549-ACE2 unit_symbol=% recorded_number=-1.7
compound="COc1cc2c(NC3CCN(C(C)C)CC3)nc(N3CCC(F)(F)CC3)nc2cc1OCCCN1CCCC1 [UNC0642]" test_target=A549-ACE2 unit_symbol=% recorded_number=9.42
compound="COc1ccc(-c2cc3nccn3c(Nc3ncccc3C(N)=O)n2)cc1OC [BAY-61-3606]" test_target=A549-ACE2 unit_symbol=% recorded_number=-2.28
compound="COc1cc2c(cc1OC)-c1c/c(=N\\c3c(C)cc(C)cc3C)n(C)c(=O)n1CC2 [trequinsin]" test_target=A549-ACE2 unit_symbol=% recorded_number=0.24
compound="CNC(=O)c1cc(Oc2ccc(NC(=O)Nc3cc(C(C)(C)C)nn3-c3ccc4ncccc4c3)c(F)c2)ccn1 [rebastinib]" test_target=A549-ACE2 unit_symbol=% recorded_number=-2.36
compound="O=C(CCCN1CCC2(CC1)C(=O)NCN2c1ccccc1)c1ccc(F)cc1 [spiperone]" test_target=A549-ACE2 unit_symbol=% recorded_number=-1.19
compound="OCc1cc(C(O)CNCCCCCCOCCCCc2ccccc2)ccc1O (stereo not drawn) [salmeterol]" test_target=A549-ACE2 unit_symbol=% recorded_number=-0.14

----------
- Test system: Vero E6
- Test details: cell viability relative to DMSO; higher = less toxic
- Measurement setup: 72 h; 1000 nM
Measured cell viability of individual entries
Property measured: cell viability (%)

molecule=CC(C)N(C[C@H]1O[C@@H](n2cnc3c(N)ncnc32)[C@H](O)[C@@H]1O)[C@H]1C[C@@H](CCc2nc3cc(C(C)(C)C)ccc3[nH]2)C1 recorded_number=102
molecule=COc1ccc(-c2cc(=O)c3c(OC)c(OC)c(OC)c(OC)c3o2)cc1OC recorded_number=93.5
molecule=Cc1cc(=O)[nH]c(=S)[nH]1 recorded_number=92.1
molecule=CC(C)(C)c1cc(C=C(C#N)C#N)cc(Br)c1O recorded_number=94.8
molecule=CCOc1cc2ncc(C#N)c(Nc3ccc(OCc4ccccn4)c(Cl)c3)c2cc1NC(=O)/C=C/CN(C)C recorded_number=64.1
molecule=CC(C)(C)OC(=O)N[C@H]1CCCCC/C=C\[C@@H]2C[C@@]2(C(=O)NS(=O)(=O)C2CC2)NC(=O)[C@@H]2C[C@@H](OC(=O)N3Cc4cccc(F)c4C3)CN2C1=O recorded_number=103
molecule=O=C(O)c1cc(O)c2c(c1)C(=O)c1cccc(O)c1C2=O recorded_number=99.1
molecule=C[C@@]1(c2cc(-c3cncnc3)c(F)cc2F)CCSC(N)=N1 recorded_number=101
molecule=COc1cc2nc(N3CCCN(C)CC3)nc(NC3CCN(Cc4ccccc4)CC3)c2cc1OC recorded_number=96.2
molecule=Cc1ccc2c(c1CCC(=O)O)CC[C@@H](NS(=O)(=O)c1ccc(Cl)cc1)C2 recorded_number=94.6
molecule=FC(F)c1nc2ccccc2n1-c1nc(N2CCOCC2)nc(N2CCOCC2)n1 recorded_number=69.8
molecule="O=C(NCCN1CCCCC1)c1ccc(I)cc1 [N-[2-(piperidinylamino)ethyl]-4-iodobenzamide]" recorded_number=99.3
molecule=FC(F)(F)c1cccc(-c2noc(-c3cc(-c4ccccc4)c(C(F)(F)F)s3)n2)c1 recorded_number=90.7
molecule=Oc1ccc2c3c1O[C@H]1[C@@H](O)CC[C@@]4(O)[C@@H](C2)N(CC2CCC2)CC[C@]314 recorded_number=102
molecule="COc1ccc(CCNCC(O)COc2cccc(C)c2)cc1OC (stereo unspecified)" recorded_number=90.1
molecule="CCCCCCCCCCC(=O)O[C@H]1CC[C@H]2[C@@H]3CCC4=CC(=O)CC[C@]4(C)[C@H]3CC[C@]12C [Testosterone (undecanoate)]" recorded_number=95.5

----------
Measured drug sensitivity score of individual entries
- Test system: HepG2
- Test details: drug sensitivity score (DSS) for viability; higher = more toxic; extreme values may be limits of the assay
- Measurement setup: 72 h
Property measured: drug sensitivity score

compound="CNCCC(Oc1ccccc1OC)c1ccccc1 (configuration not stated)" recorded_number=0
compound=CC(C)(C)C(=O)OCOC(=O)[C@@H]1N2C(=O)[C@@H](NC(=O)[C@H](N)c3ccccc3)[C@H]2SC1(C)C recorded_number=0.2
compound="NS(=O)(=O)c1cc2c(cc1C(F)(F)F)NCNS2(=O)=O [hydroflumethiazide]" recorded_number=0
compound="CN[C@@H]1[C@@H](O)[C@@H](O[C@@H]2[C@@H](O)[C@H](O[C@H]3OC(CN)=CC[C@H]3N)[C@@H](N)C[C@H]2N)OC[C@]1(C)O [Sisomicin (sulfate)]" recorded_number=0
compound=CN(C)[C@@H]1C(O)=C(C(N)=O)C(=O)[C@@]2(O)C(O)=C3C(=O)c4c(O)cccc4[C@@](C)(O)[C@H]3C[C@@H]12 recorded_number=0
compound=CCCCCCCCCCCCCCCCCCCCCC(=O)Nc1ccn([C@@H]2O[C@H](CO)[C@@H](O)[C@@H]2O)c(=O)n1 recorded_number=0.4
compound=Clc1cc(Cl)c(OCC#CI)cc1Cl recorded_number=3.4

----------
- Test system: Vero E6
- Test details: cell viability relative to DMSO; higher = less toxic
- Measurement setup: 72 h; 100 nM
Measured cell viability of individual entries
Property measured: cell viability (%)

compound="CC#CC(=O)N1CC[C@@H](n2c(=O)n(-c3ccc(Oc4ccccc4)cc3)c3c(N)ncnc32)C1 [ONO-4059]" recorded_number=90.7
compound="CCCN(CCC)CCc1ccc(OC)c(OCCc2ccccc2)c1 [NE-100]" recorded_number=99.3
compound=O=C(Nc1ccccc1Br)N[C@@H]1CCN(c2ccc(C(F)(F)F)cn2)C1 recorded_number=103
compound="c1ccc2cc(C3=NCCN3)ncc2c1 [BU226]" recorded_number=96.5
compound="CC/C(=C(\\c1ccc(O)cc1)c1ccc(OCCN(C)C)cc1)c1ccccc1 [afimoxifene]" recorded_number=99.8
compound="COC(=O)C1=C(C)NC(C)=C(C(=O)NCCCN2CCC(c3ccccc3)(c3ccccc3)CC2)C1c1ccc([N+](=O)[O-])cc1 (centres undefined) [SNAP-5089]" recorded_number=97.4
compound="C[C@@H](CN1CC(=O)NC(=O)C1)N1CC(=O)NC(=O)C1 [dexrazoxane]" recorded_number=103
compound="Cc1cc(Nc2ncnc3ccc(NC4=NC(C)(C)CO4)cc23)ccc1Oc1ccn2ncnc2c1 [tucatinib]" recorded_number=95.1
compound=CC1(C)CCC(C)(C)c2c1cc(C(=O)Nc1cc(F)c(C(=O)O)c(F)c1)c(O)c2Cl recorded_number=105
compound="O=C(C[C@H]1CC(c2ccc(F)cc2F)=NO1)N1CCOCC1 (racemic) [CPSI-1306-(+/-)]" recorded_number=93.6
compound="CC(=O)N[C@@H](CSSC[C@H](NC(C)=O)C(=O)O)C(=O)O [D-7193]" recorded_number=100
compound="O=c1sn(-c2cccc3ccccc23)c(=O)n1Cc1ccccc1 [tideglusib]" recorded_number=97
compound="CCCCCCCCCCC(=O)O[C@H]1CC[C@H]2[C@@H]3CCC4=CC(=O)CC[C@]4(C)[C@H]3CC[C@]12C [Testosterone (undecanoate)]" recorded_number=99.2
compound="CN(C)C/C=C/C(=O)Nc1cccc(C(=O)Nc2cccc(Nc3ncc(Cl)c(-c4c[nH]c5ccccc45)n3)c2)c1 [THZ2]" recorded_number=103
compound="O=C(Nc1cccc(C(F)(F)F)c1)Nc1ccc(Br)cc1-c1nnn[nH]1 [NS-3623]" recorded_number=92.4
compound=CCCCCCCCc1ccc(-c2ccc(C(=O)O)cc2)cc1 recorded_number=97.7
compound="O=C(O)CCCNC(=O)c1cccnc1 [pikamilone]" recorded_number=102
compound="NCCc1ccccn1 [2-pyridylethylamine]" recorded_number=105
compound=CNc1cc2c(Nc3cccc(Br)c3)ncnc2cn1 recorded_number=88.4
